Hey, just so you know, these numbers are from patent US20240400701A1.

Target: T1, human AMHRII (anti-Mullerian hormone receptor type 2) (human, UniProt Q16671 18-573)
T1 construct: whole, on cells; also called AMHR2; human AMHR2
T1 sequence (looked up): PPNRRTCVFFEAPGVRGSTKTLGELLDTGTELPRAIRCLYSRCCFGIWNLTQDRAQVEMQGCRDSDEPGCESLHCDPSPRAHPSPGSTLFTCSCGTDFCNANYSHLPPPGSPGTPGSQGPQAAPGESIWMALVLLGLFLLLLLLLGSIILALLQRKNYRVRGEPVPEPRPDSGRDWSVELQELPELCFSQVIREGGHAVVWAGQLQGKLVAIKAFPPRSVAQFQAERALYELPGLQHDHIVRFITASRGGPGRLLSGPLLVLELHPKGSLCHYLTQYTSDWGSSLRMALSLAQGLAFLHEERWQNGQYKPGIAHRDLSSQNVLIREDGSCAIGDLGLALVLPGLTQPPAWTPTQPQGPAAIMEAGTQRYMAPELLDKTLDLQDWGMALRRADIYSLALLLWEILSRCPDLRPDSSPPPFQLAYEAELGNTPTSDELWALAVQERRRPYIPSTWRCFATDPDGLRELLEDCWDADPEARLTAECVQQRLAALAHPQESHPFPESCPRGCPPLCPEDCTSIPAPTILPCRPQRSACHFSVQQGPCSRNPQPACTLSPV
Test: FACS on CHO-K1 cells over-expressing human AMHR2
Provide the recorded Top (MFI) for the entries that follow.
One number for each entry, in MFI.

Please review the following examples before continuing.
BINDER	VALUE UNIT	Top (MFI)
108F3D1E9 H2L3 hIgG1 (antibody, V domains shown, Humanized, human IgG1; also called 108F3D1E9 H2L3 hlgG1) VH: QLQLQESGPGLVKPSETLSLTCTVSGYSITSDFAWNWIRQPPGKGLEWMGYISFSGSTSYNPSLKSRVTISRDTSKNQFSLKLSSVTAADTAVYYCAGSRYSWFAYWGQGTLVTVSS VL: DIVLTQSPSSLSASVGDRVTITCRASESVDTYGNSFMHWYQQKPGQPPKLLIYRASNLESGIPARFSGSGSGTDFTLTISSVQPEDFATYYCQQSNEDPYTFGGGTKVEIK	MFI	67300
94C4C3 H1L1 hIgG1 (antibody, V domains shown, Humanized, human IgG1; also called 94C4C3 H1L1 hlgG1) VH: QLQLQESGPGLVKPSETLSLTCTVSGYSITSDYAWNWIRQPPGKGLEWIGYISYSGSISYNPSLKSRVTISVDTSKNQFSLKLSSVTAADTAVYYCARSRYSWFDYWGQGTLVTVSS VL: EIVLTQSPGTLSLSPGERATLSCSASESVDTYGNSFMHWYQQKPGQAPRLLIYRASSLESGIPDRFSGSGSGTDFTLTISRLEPEDFAVYYCQQSNEDPYTFGGGTKVEIK	MFI	53000
31D9B3 H1L2 hIgG1 (antibody, V domains shown, Humanized, human IgG1; also called 31D9B3 H1L2 hlgG1; 31D9B3 VH1-VL2 hlgG1) VH: QVQLVQSGAEVKKPGASVKVSCKASGYTFTDYWVSWVRQAPGQGLEWMGEIYPKNGVSNFNEKFKGRVTMTTDTSTSTAYMELRSLRSDDTAVYYCARQRDYWGQGTLVTVSS VL: DVVMTQSPLSLPVTLGQPASISCRSSQSLEYGDGYTYLEWYLQRPGQSPRLLIYGVSNRFSGVPDRFSGSGSGTDFTLKISRVEAEDVGVYYCFQATHDPNTFGQGTKLEIK	MFI	26700
94C4C3 H2L3 hIgG1 (antibody, V domains shown, Humanized, human IgG1; also called 94C4C3 H2L3 hlgG1) VH: QLQLQESGPGLVKPSETLSLTCTVSGYSITSDYAWNWIRQPPGKGLEWMGYISYSGSISYNPSLKSRITISRDTSKNQFSLKLSSVTAADTAVYYCARSRYSWFDYWGQGTLVTVSS VL: EIVLTQSPGTLSLSPGERATLSCSASESVDTYGNSFMHWYQQKPGQPPRLLIYRASSLESGIPVRFSGSGSRTDFTLTISRVEAEDFAVYYCQQSNEDPYTFGGGTKLEIK	MFI	55800

Let us move to another entry and its Top (MFI).
Please give the measured Top (MFI) for this binder: 31D9B3 VH1.1-VL2.2 hIgG1 (antibody, V domains shown, Humanized, PTM de-risked, human IgG1; also called 31D9B3 VH1.1-VL2.2 hlgG1) VH: QVQLVQSGAEVKKPGASVKVSCKASGYTFTDYWVSWVRQAPGQGLEWMGEIYPKEGVSNFNEKFKGRVTMTTDTSTSTAYMELRSLRSDDTAVYYCARQRDYWGQGTLVTVSS VL: DVVMTQSPLSLPVTLGQPASISCRSSQSLEYGDRYTYLEWYLQRPGQSPRLLIYGVSNRFSGVPDRFSGSGSGTDFTLKISRVEAEDVGVYYCFQATHDPNTFGQGTKLEIK
14500
